The origin of these recorded values is paper PMC6943709.

Molecular target: Acetylcholinesterase (AChE) (Mus musculus, UniProt P21836)
Construct: The assay medium consisted of brain lysate (5 mg/mL) containing different concentrations of testing drugs; from tissue; host or cells: mouse brain lysate
Sequence (P21836 32-614): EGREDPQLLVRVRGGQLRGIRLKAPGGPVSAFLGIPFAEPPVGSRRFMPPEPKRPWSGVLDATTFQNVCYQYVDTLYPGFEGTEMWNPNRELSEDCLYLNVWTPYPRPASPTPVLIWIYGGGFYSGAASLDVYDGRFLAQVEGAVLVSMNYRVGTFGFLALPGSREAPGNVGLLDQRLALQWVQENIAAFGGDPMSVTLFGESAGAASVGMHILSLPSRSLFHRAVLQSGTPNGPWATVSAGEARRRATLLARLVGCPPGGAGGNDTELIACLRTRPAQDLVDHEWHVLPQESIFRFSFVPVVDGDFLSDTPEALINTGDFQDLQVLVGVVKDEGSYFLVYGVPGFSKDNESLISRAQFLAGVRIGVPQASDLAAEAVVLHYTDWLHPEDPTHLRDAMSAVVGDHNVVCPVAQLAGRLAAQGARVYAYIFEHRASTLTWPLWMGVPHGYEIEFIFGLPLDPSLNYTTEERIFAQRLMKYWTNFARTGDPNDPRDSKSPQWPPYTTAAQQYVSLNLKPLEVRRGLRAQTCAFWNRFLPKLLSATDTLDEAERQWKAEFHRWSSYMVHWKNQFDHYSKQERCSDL
Assay: biochemical
Format: biochemical
Conditions: ranking by IC50, molar concentration (alkaloids)

smiles-code	tested-system	AChE Inhibitory Activity
COc1ccc2cc1Oc1ccc(cc1)C[C@H]1c3cc(c(OC)cc3CCN1C)Oc1c(OC)c(OC)cc3c1[C@H](C2)N(C)CC3	Acetylcholinesterase (AChE) (Mus musculus, UniProt P21836)	−

###

Molecular target: Acetylcholinesterase (AChE) (Mus musculus)
Construct: The assay medium consisted of brain lysate (5 mg/mL) containing different concentrations of testing drugs; from tissue; host or cells: mouse brain lysate
Assay: biochemical
Type: biochemical
pIC50: −log10 of the molar value.

smiles-code	pIC50
COc1ccc2cc3[n+](cc2c1OC)CCc1cc2c(cc1-3)OCO2	5.63
COc1cc2c(cc1OC)-c1cc3ccc(OC)c(OC)c3c[n+]1CC2	5.19
c1c2c(cc3c1OCO3)-c1cc3ccc4c(c3c[n+]1CC2)OCO4	4.87
COc1ccc2cc1Oc1ccc(cc1)C[C@H]1c3cc(c(OC)cc3CCN1C)Oc1c(O)c(OC)cc3c1[C@H](C2)N(C)CC3	5.66

###

Molecular target: Acetylcholinesterase (AChE) (Mus musculus, UniProt P21836)
Construct: The assay medium consisted of brain lysate (5 mg/mL) containing different concentrations of testing drugs; from tissue; host or cells: mouse brain lysate
Assay: biochemical
Assay type: biochemical
Conditions: single alkaloids; mouse brain lysate; Mean ± SEM, n = 3; read-out: IC50
property-measured: IC50 (µM)

compound	tested-system	readout-value
COc1cc2c(cc1OC)-c1cc3ccc4c(c3c[n+]1CC2)OCO4 [Epiberberine]	Acetylcholinesterase (AChE) (Mus musculus, UniProt P21836)	18.7
